Reference for the values: patent US20230285581A1

Target: full length human MSR1 with a C-terminal Myc tag on HEK293.Myc.hMSR1 cells (human) (UniProt P21757)
Sequence (P21757 whole entry): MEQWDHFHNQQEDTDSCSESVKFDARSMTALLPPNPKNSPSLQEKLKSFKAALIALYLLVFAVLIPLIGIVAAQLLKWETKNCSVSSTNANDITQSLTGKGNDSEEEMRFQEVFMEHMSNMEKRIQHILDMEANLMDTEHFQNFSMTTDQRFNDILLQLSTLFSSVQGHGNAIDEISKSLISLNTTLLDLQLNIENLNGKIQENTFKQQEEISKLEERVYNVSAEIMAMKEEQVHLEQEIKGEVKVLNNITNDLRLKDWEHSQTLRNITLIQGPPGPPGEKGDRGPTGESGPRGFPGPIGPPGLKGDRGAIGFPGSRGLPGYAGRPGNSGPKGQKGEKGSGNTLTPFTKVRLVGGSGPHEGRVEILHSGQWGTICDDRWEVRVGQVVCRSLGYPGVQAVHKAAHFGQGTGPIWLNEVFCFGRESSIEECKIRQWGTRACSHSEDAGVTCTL
Test: ECL cell binding, HEK293.Myc.hMSR1 cells
endpoint: ratio of 11 nM antibody binding signal (RLU) to isotype control
Kindly provide the number alone.

Known results for binders:
| binder | reading |
| --- | --- |
| H1H21231N (antibody, human IgG1, V domains shown) VH: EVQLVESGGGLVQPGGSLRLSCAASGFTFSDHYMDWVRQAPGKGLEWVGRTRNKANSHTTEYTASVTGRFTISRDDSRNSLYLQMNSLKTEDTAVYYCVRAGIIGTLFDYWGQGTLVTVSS VL: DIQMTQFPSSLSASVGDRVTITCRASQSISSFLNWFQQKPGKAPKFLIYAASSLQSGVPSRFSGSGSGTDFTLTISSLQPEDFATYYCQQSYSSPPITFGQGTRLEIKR | 61 |
| H1H27739P-N297Q (antibody, human IgG1, V domains shown) VH: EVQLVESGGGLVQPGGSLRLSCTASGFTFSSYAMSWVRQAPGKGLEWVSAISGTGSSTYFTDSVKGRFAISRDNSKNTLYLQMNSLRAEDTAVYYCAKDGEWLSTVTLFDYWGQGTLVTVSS VL: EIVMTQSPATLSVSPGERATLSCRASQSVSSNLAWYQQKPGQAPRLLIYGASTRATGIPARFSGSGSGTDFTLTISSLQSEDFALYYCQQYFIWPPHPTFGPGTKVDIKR | 22 |

**Query** Return the recorded ratio of 11 nM antibody binding signal (RLU) to isotype control value; entry: H1H27734P-N297Q (antibody, human IgG1, V domains shown) VH: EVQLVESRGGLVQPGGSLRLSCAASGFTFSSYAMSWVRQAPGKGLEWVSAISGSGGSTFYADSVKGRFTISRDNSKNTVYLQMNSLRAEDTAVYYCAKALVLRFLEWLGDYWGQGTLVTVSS VL: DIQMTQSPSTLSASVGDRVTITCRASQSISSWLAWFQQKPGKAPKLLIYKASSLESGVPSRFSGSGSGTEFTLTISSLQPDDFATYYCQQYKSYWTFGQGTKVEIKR
**Result** 40
